Molecular target: T1, recombinant soluble human Seprase (rhuSeprase) (human, UniProt Q12884 29-760)
T1 construct: range 29-760; Secreted from CHO-S cells with a mouse Ig kappa secretion signal (not part of the protein in the assay); also called recombinant human Seprase; soluble fraction of human Seprase
T1 sequence: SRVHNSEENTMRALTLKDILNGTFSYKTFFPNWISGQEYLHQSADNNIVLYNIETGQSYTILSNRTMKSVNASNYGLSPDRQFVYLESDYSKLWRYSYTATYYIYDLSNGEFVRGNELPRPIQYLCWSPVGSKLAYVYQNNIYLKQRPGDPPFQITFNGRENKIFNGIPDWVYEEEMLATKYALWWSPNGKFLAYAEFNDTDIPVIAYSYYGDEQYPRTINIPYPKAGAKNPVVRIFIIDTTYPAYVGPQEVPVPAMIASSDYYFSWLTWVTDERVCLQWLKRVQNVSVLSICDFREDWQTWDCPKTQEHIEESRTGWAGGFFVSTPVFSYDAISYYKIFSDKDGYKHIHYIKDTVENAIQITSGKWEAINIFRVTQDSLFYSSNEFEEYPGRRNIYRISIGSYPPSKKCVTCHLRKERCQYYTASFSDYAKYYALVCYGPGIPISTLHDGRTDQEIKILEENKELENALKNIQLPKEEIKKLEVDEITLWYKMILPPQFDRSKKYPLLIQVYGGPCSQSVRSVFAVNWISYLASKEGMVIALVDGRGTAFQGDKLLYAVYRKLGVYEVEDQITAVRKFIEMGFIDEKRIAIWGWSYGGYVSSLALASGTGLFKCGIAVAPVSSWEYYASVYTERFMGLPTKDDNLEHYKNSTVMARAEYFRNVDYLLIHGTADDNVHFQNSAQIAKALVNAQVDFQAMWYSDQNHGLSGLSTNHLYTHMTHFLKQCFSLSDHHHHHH
Experiment: SPR (Biacore T-100), rhuSeprase immobilized on CM5, multi cycle kinetics, 1:1 fit
No end group written: not given here.
Think of 600000 M⁻¹ s⁻¹ as a floor: if kon stands on it or above, it is Condition met; beneath it, Condition not met.

Consider the following illustrative entries.
- binder: "GSGACPYSNWTPGRGPDCSSDSDCPGACICLENGFCG (designed binder) [MO-FA-012]"
  answer label: "Condition not met"
- binder: "GKCPYSNWTPGRGPDCRRDSDCPGRCICRGNGYCG (designed binder, disulfide (positions not given here), also called soluble monovalent MC-FA-010; solitary MC-FA-010 miniprotein) [MC-FA-010]"
  answer label: "Condition met"
- binder: "GSGACPYTNWHPGRGPACRRDSDCPGRCICRGNGYCG (designed binder) [FA8-G12]"
  answer label: "Condition met"

Please check the record GSGACPYTRWQPGRGPSCRRDSDCPGRCICRGNGYCG (designed binder) [FA8-D05] and state if its kon is at or above 600000 M⁻¹ s⁻¹.
Condition met

Textbook exercise: given the entry GACPYSNWTPGRGPDCRRDSDCPGRCICRGNGYCG (designed binder, disulfide (positions not given here), it is derived from MC-FA-010 and K2A; also called MC-FA-012 (K2A); monomeric MC-FA-012 Microbody) [MC-FA-012] , state whether its kon is greater than or equal to 600000 M⁻¹ s⁻¹.
Condition not met

Has GSGACPYSRWMPGRGPSCRRDSDCPGRCICRGNGYCG (designed binder) [FA7-A05] a recorded kon greater than or equal to 600000 M⁻¹ s⁻¹?
Condition not met

Hello, I need to know if GSGACPYSRWAVGRGPDCRRDSDCPGRCICRGNGYCG (designed binder) [FA8-D06] has measured kon not below 600000 M⁻¹ s⁻¹. Thanks!
Condition not met

Reported kon reaches at least 600000 M⁻¹ s⁻¹ for GSGACPYTNWRPGRGPACRRDSDCPGRCICRGNGYCG (designed binder) [FA8-C09] ?
Condition met

Hello, I need to know if GSGACPYSNWAVGRGPSCRRDSDCPGRCICRGNGYCG (designed binder) [FA8-F04] has measured kon not below 600000 M⁻¹ s⁻¹. Thanks!
Condition met

Given the entry GSGACPYTRWAVGRGPDCRRDSDCPGRCICRGNGYCG (designed binder) [FA8-D03] , answer whether its kon meets or surpasses 600000 M⁻¹ s⁻¹.
Condition met
